Measured TGI, listed per entry for reference.
# System: HL-60(TB) leukemia
# assay: NCI tumour cell line growth inhibition, 48 h

{"columns": ["molecule", "system-tested", "TGI"],
 "data": [
  ["O=C(CN1CCN(c2ccccc2)CC1)c1ccc2[nH]c(=O)oc2c1", "HL-60(TB) leukemia", "> 100 µM"],
  ["COc1ccc(NC(=S)N=Nc2c(O)[nH]c3ccccc23)cc1", "HL-60(TB) leukemia", "> 100 µM"],
  ["NCCCCCCn1c2c(c3ccccc3c1=O)C(=O)c1ccccc1-2", "HL-60(TB) leukemia", "1.42 µM"],
  ["Cc1cn(C2CC(n3cncn3)C(C(C)O)O2)c(=O)[nH]c1=O (configuration not stated)", "HL-60(TB) leukemia", "> 100 µM"],
  ["O=C1C(=O)c2c(O)ccc(O)c2C(O)=C1Cl", "HL-60(TB) leukemia", "> 100 µM"],
  ["Cc1ccc2nc(-n3c(/C=C/c4ccccc4O)nc4ccccc4c3=O)sc2c1", "HL-60(TB) leukemia", "> 100 µM"],
  ["O=c1c2c([nH]c3cc4c(cc13)OCO4)-c1ccccc1C2", "HL-60(TB) leukemia", "70.1 µM"],
  ["COc1ccc2c(c1)CCC1C2CCC2(C)C3=CC(O)CCC3CC12 (configuration not stated)", "HL-60(TB) leukemia", "35.5 µM"],
  ["Cc1cc2c(c(C)c1O)C(C)(C)CN2C(=O)C(C)(C)C", "HL-60(TB) leukemia", "> 100 µM"],
  ["COS(=O)(=O)OCCC(NC(=O)OCc1ccccc1)C(=O)OCc1ccccc1 (configuration not stated)", "HL-60(TB) leukemia", "> 100 µM"],
  ["O=C1/C(=C/c2ccc(O)c(O)c2)COc2ccc(-c3ccccc3)cc21", "HL-60(TB) leukemia", "4.47 µM"],
  ["Nc1ccc2c(c1)S(=O)(=O)c1cc(O)ccc1O2", "HL-60(TB) leukemia", "> 100 µM"],
  ["CCN(CC)CCNc1ccc2ncn3c4ccccc4c(=O)c1c23", "HL-60(TB) leukemia", "> 100 µM"],
  ["O=C(O)c1c(-c2ccccc2)c(=O)[nH]c2ccccc12", "HL-60(TB) leukemia", "> 100 µM"],
  ["O=C1/C(=C/c2cccc([N+](=O)[O-])c2)N=C(c2ccccc2)N1c1nc2c(Cl)cc(Cl)cc2s1", "HL-60(TB) leukemia", "60.9 µM"],
  ["COc1ccc(N2C(=O)C3c4[nH]c5ccc(C)cc5c4C4CCC(c5ccccc5)CC4C3C2=O)cc1 (configuration not stated)", "HL-60(TB) leukemia", "> 100 µM"],
  ["Cc1occc(=O)c1O", "HL-60(TB) leukemia", "> 100 µM"],
  ["O=C(CCc1n[nH]c(=S)o1)Nc1cc(Cl)c(Cl)cc1Cl", "HL-60(TB) leukemia", "> 100 µM"],
  ["O=C(O)CSc1ccc2[nH]c3ccccc3c(=O)c2c1", "HL-60(TB) leukemia", "> 100 µM"],
  ["CCOc1ccc(N=NC2C(=O)N(C(=O)CC(=O)Nc3ccc(C)cc3)N=C2C)cc1 (configuration not stated)", "HL-60(TB) leukemia", "> 100 µM"],
  ["Cc1ccc(NCCN2CCCCC2)c2c(=O)c3ccccc3sc12", "HL-60(TB) leukemia", "3.6 µM"],
  ["COc1ccc(N2C(=O)CC(=O)N(C(=O)CCCCCCCCC(=O)N3C(=O)CC(=O)N(c4ccc(OC)cc4)C3=S)C2=S)cc1", "HL-60(TB) leukemia", "> 100 µM"]
]}
